test: shake flask on a mixture of 185; loss from the water phase only; LC-QTOF peak areas
condition: room
The recorded log partition toluene / HPLC water, unbuffered, traces of methanol / DMSO of each item maps onto one of these classes: bottom bin: < -0.5 log10; middle bin: ≥ -0.5 log10 and < 2 log10; top bin: ≥ 2 log10

C[C@H](CCC(=O)O)[C@H]1CC[C@H]2[C@@H]3CC[C@@H]4C[C@H](O)CC[C@]4(C)[C@H]3CC[C@]12C :: bottom bin

Lab log: `Oc1c(Cl)cc(Cl)cc1Sc1cc(Cl)cc(Cl)c1O` — assign log partition toluene / HPLC water, unbuffered, traces of methanol / DMSO category
middle bin

Lab log: `O=C(c1ccccc1)c1ccc(O)cc1O` — assign log partition toluene / HPLC water, unbuffered, traces of methanol / DMSO category
middle bin
